In this section we review reported remaining at 24 h, 1000 ng/ml values for a set of compounds.
experiment_notes: Stability of the compound in Rattus norvegicus (rat) plasma at 1000 ng/ml after three 24 hr cycles of freeze-thaw on storing at -80 degC
Type: ADME, cell-free
applied_conditions: read-out: Stability
quantity_name: remaining at 24 h, 1000 ng/ml (%)

>>> value_measured("Oc1ccc([C@H]2COc3cc(O)ccc3C2)cc1")
91.8
>>> value_measured("COc1ccc(-c2coc3cc(O)ccc3c2=O)cc1OC")
88.2

* * *

experiment_notes: Mean residence time in Rattus norvegicus Sprague-Dawley (rat) at 10 mg/kg, po
Type: ADME, organism-based
Parameters: dose 10 mg/kg, route oral
applied_conditions: in vivo
quantity_name: MRT (h)

>>> value_measured("COc1ccc(-c2coc3cc(O)ccc3c2=O)cc1OC [CLADRIN]")
10.8

* * *

experiment_notes: AUC (0 to alpha) in Rattus norvegicus Sprague-Dawley (rat) at 10 mg/kg, po
Assay type: ADME, organism-based
Parameters: dose 10 mg/kg, route oral
applied_conditions: plasma
quantity_name: AUC (ng·h/mL)

>>> value_measured("COc1ccc(-c2coc3cc(O)ccc3c2=O)cc1OC [CLADRIN]")
609

* * *

Entries and their measured remaining at 1461 h, 1000 ng/ml follow.
experiment_notes: Stability of the compound in Rattus norvegicus (rat) plasma at 1000 ng/ml after 2 months at -80 degC
Type: ADME, cell-free
applied_conditions: read-out: Stability
quantity_name: remaining at 1461 h, 1000 ng/ml (%)

>>> value_measured("COc1ccc(-c2coc3cc(O)ccc3c2=O)cc1OC")
81.4
>>> value_measured("Oc1ccc([C@H]2COc3cc(O)ccc3C2)cc1")
95.6

* * *

experiment_notes: Stability of the compound in Rattus norvegicus (rat) plasma at 62.5 ng/ml after 2 months at -80 degC
Assay type: ADME, cell-free
applied_conditions: read-out: Stability
Reported remaining at 1461 h, 62.5 ng/ml values follow for various molecules
quantity_name: remaining at 1461 h, 62.5 ng/ml (%)

>>> value_measured("Oc1ccc([C@H]2COc3cc(O)ccc3C2)cc1")
103
>>> value_measured("COc1ccc(-c2coc3cc(O)ccc3c2=O)cc1OC")
84.5

* * *

experiment_notes: Half life in Rattus norvegicus Sprague-Dawley (rat) at 10 mg/kg, po
Format: ADME, organism-based
Parameters: dose 10 mg/kg, route oral
applied_conditions: in vivo
quantity_name: half-life (h)

>>> value_measured("COc1ccc(-c2coc3cc(O)ccc3c2=O)cc1OC [CLADRIN]")
4.1

* * *

Measured remaining at 24 h, 7.8 ng/ml accompanies every entry in the list below.
experiment_notes: Stability of the compound in Rattus norvegicus (rat) plasma at 7.8 ng/ml after three 24 hr cycles of freeze-thaw on storing at -80 degC
Type: ADME, cell-free
applied_conditions: read-out: Stability
quantity_name: remaining at 24 h, 7.8 ng/ml (%)

>>> value_measured("COc1ccc(-c2coc3cc(O)ccc3c2=O)cc1OC [CLADRIN]")
93.6
>>> value_measured("Oc1ccc([C@H]2COc3cc(O)ccc3C2)cc1 [AUS-131]")
93.9
